test: CCTE_Mundy_HCI_iCellGluta_NOG_NeuriteCount: CCTE's Neurite Outgrowth Assay in iCellGluta cells for Neurite Count, Mundy Lab (AID 2284342);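 also: chemical exposure about 48 hours starting 2 hours after plating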
Results filed as inconclusive are left out. Activity calls are given as the source filed them. The calls were made as follows: active = hit-call score of the fitted dose curve at least 0.9, where 1 is the maximum; inconclusive = response in the unintended direction; inactive = score below 0.9.
Classes used: T (active), F (inactive)

- compound: "C=C(C)[C@H]1Cc2c(ccc3c2O[C@@H]2COc4cc(OC)c(OC)cc4[C@@H]2C3=O)O1"
  discrete label: "T"
- compound: "CCOP(=S)(OCC)OC(Cl)C(Cl)(Cl)Cl (centres undefined)"
  discrete label: "F"
- compound: "C[N+]1(C)CCCCC1"
  discrete label: "F"
- compound: "CCOP(=S)(Oc1cnc(C(C)(C)C)nc1)OC(C)C (centres undefined)"
  discrete label: "T"
- compound: "CC1=NNC(=O)N(/N=C/c2cccnc2)C1"
  discrete label: "F"
- compound: "CC[C@H](C)[C@H]1O[C@]2(C=C[C@@H]1C)C[C@@H]1C[C@@H](C/C=C(\\C)[C@@H](O[C@H]3C[C@H](OC)[C@@H](O[C@H]4C[C@H](OC)[C@@H](NC)[C@H](C)O4)[C@H](C)O3)[C@@H](C)/C=C/C=C3\\CO[C@@H]4[C@H](O)C(C)=C[C@@H](C(=O)O1)[C@]34O)O2"
  discrete label: "T"
- compound: "CCOP(=S)(OCC)Oc1ccc([N+](=O)[O-])cc1"
  discrete label: "F"
- compound: "CC(C)N(C(=O)SCC(Cl)=C(Cl)Cl)C(C)C"
  discrete label: "T"
- compound: "CCCCSP(=O)(SCCCC)SCCCC"
  discrete label: "F"

----------
read-out: Interleukin-8 (IL8), CXCL8 (gene 3576); test: BSK_hDFCGF_IL8: BioMAP Diversity Plus: hDFCGF Assay for Interleukin-8 (IL8) Biomarker Activity (AID 2283058); conditions: primary human foreskin fibroblasts; actives raise or lower the signal
Activity calls are given as the source filed them. The calls were made as follows: active = hit-call score of the fitted dose curve at least 0.9, where 1 is the maximum; inactive = score below 0.9.
Classes used: label 1 (active), label 0 (inactive)

- compound: "Cc1ccn2nc(S(=O)(=O)Nc3c(F)cccc3F)nc2n1"
  discrete label: "label 0"
- compound: "CCOP(=O)(OCC)Oc1cc(C)nc(C(C)C)n1"
  discrete label: "label 0"
- compound: "CCOP(=S)(OCC)OC(Cl)C(Cl)(Cl)Cl (stereo unspecified)"
  discrete label: "label 0"
- compound: "CCOP(=S)(OCC)Oc1ccc([N+](=O)[O-])cc1"
  discrete label: "label 0"
- compound: "CCOP(=S)(OCC)Oc1cc(C)nc(C(C)C)n1"
  discrete label: "label 0"
- compound: "CCOP(=S)(OCC)SCCSCC"
  discrete label: "label 0"
- compound: "CCCOCC(=Nc1ccc(Cl)cc1C(F)(F)F)n1ccnc1"
  discrete label: "label 1"
- compound: "CON=C(C(=O)OC)c1ccccc1CON=C(C)c1cccc(C(F)(F)F)c1"
  discrete label: "label 0"
- compound: "CC[C@H](C)[C@H]1O[C@]2(C=C[C@@H]1C)C[C@@H]1C[C@@H](C/C=C(\\C)[C@@H](O[C@H]3C[C@H](OC)[C@@H](O[C@H]4C[C@H](OC)[C@@H](NC)[C@H](C)O4)[C@H](C)O3)[C@@H](C)/C=C/C=C3\\CO[C@@H]4[C@H](O)C(C)=C[C@@H](C(=O)O1)[C@]34O)O2"
  discrete label: "label 1"
- compound: "CC(C)[C@H](C(=O)O[C@H](C#N)c1cccc(Oc2ccccc2)c1)c1ccc(Cl)cc1"
  discrete label: "label 0"
- compound: "CC(Oc1cccc(Cl)c1)C(=O)O (stereo unspecified)"
  discrete label: "label 0"
- compound: "S=C1NCCN1"
  discrete label: "label 0"
- compound: "Cc1cc(C2CC2)nc(Nc2ccccc2)n1"
  discrete label: "label 0"
- compound: "CCOP(=S)(OCC)Oc1ccc2c(C)c(Cl)c(=O)oc2c1"
  discrete label: "label 0"
- compound: "Nc1nc(N)nc(NC2CC2)n1"
  discrete label: "label 0"
- compound: "CC(COc1ccc(Oc2ccccc2)cc1)Oc1ccccn1 (stereo unspecified)"
  discrete label: "label 0"
